- test system: T1, human TL1A extracellular domain with N-terminal HIS and FLAG tag (human, UniProt O95150 72-251)
- T1 construct: the whole entry is named
- T1 sequence: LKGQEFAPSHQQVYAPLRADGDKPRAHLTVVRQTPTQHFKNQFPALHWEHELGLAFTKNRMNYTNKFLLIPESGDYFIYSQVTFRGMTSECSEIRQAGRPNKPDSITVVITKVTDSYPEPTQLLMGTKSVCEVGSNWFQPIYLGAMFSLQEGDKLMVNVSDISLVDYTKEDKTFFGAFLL
- experiment summary: SPR Run 5, Ab from supernatant captured on Protein A, TL1A 5 ug/mL, timepoint 220
quantity measured: TL1A Binding Level (Late)
In your response, put the unit directly after the numeric value.

What does the record list as TL1A Binding Level (Late) for 320-411 (antibody, human IgG1, name in Kabat numbering, V domains shown, human IgG1, lambda) VH: QVQLVQSGAEVKKPGASVKVSCKASGYWFTSYDINWVRQAPGQGLEWMGWLNPNSGNTGYAQKFQGRVTMTADRSTSTAYMELSSLRSEDTAVYYCAREVPETAAFEYWGQGTLVTVSS VL: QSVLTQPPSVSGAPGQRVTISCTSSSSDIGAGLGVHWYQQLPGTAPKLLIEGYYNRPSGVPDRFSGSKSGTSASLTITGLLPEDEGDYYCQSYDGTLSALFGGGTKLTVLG ? 9 RU

What does the record list as TL1A Binding Level (Late) for 320-388 (antibody, human IgG1, name in Kabat numbering, V domains shown, human IgG1, lambda) VH: QVQLVQSGAEVKKPGASVKVSCKASAYTFTSYDINWVRQAPGQGLEWMGWLNPNSGNTGYAQKFQGRVTMTADRSTSTAYMELSSLRSEDTAVYYCAREVPETAAFEYWGQGTLVTVSS VL: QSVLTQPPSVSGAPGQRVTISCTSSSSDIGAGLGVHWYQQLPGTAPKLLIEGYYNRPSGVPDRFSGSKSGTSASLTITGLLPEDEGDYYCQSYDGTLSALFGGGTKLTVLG ? 13 RU

What does the record list as TL1A Binding Level (Late) for 320-402 (antibody, human IgG1, name in Kabat numbering, V domains shown, human IgG1, lambda) VH: QVQLVQSGAEVKKPGASVKVSCKASGLTFTSYDINWVRQAPGQGLEWMGWLNPNSGNTGYAQKFQGRVTMTADRSTSTAYMELSSLRSEDTAVYYCAREVPETAAFEYWGQGTLVTVSS VL: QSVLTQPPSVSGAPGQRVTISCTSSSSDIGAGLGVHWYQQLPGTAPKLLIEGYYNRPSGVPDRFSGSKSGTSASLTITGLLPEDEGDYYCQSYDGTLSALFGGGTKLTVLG ? 10 RU

What does the record list as TL1A Binding Level (Late) for 320-392 (antibody, human IgG1, name in Kabat numbering, V domains shown, human IgG1, lambda) VH: QVQLVQSGAEVKKPGASVKVSCKASHYTFTSYDINWVRQAPGQGLEWMGWLNPNSGNTGYAQKFQGRVTMTADRSTSTAYMELSSLRSEDTAVYYCAREVPETAAFEYWGQGTLVTVSS VL: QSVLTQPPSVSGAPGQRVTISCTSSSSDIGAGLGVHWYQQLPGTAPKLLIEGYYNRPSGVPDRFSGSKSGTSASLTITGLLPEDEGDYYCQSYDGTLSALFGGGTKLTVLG ? 11 RU

What does the record list as TL1A Binding Level (Late) for 320-416 (antibody, human IgG1, name in Kabat numbering, V domains shown, human IgG1, lambda) VH: QVQLVQSGAEVKKPGASVKVSCKASGYTDTSYDINWVRQAPGQGLEWMGWLNPNSGNTGYAQKFQGRVTMTADRSTSTAYMELSSLRSEDTAVYYCAREVPETAAFEYWGQGTLVTVSS VL: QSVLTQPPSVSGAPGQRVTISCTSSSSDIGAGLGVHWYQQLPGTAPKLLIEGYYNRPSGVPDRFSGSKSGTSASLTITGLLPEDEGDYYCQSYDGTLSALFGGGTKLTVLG ? 8 RU
